experiment: photoluminescence quantum yield (fraction); solvent given as SMILES; conditions: in ClC(Cl)Cl
Label yes when photoluminescence quantum yield is at or above 0.5; anything below gets no.

[
  {
    "COMPOUND": "CCCCCCCCC1(CCCCCCCC)c2cc(-c3ccc([N+](=O)[O-])cc3)ccc2-c2ccc(-c3ccc([N+](=O)[O-])cc3)cc21",
    "CATEGORY LABEL": "no"
  },
  {
    "COMPOUND": "Cc1cc2c(o1)=CC1=C(C(F)(F)F)c3cc4oc(C)cc4n3[B-](F)(F)[N+]=21",
    "CATEGORY LABEL": "yes"
  },
  {
    "COMPOUND": "CCCCCCn1c2cc(/C=C/c3cccs3)ccc2c2ccc(/C=C/c3cccs3)cc21",
    "CATEGORY LABEL": "yes"
  }
]

Hello, I need to know if `CCOc1ccc2c(-c3nc(-c4cccc(C)c4)no3)cc(=O)oc2c1` has measured photoluminescence quantum yield not below 0.5. Thanks!
no

photoluminescence quantum yield >= 0.5 for `CCCCCCC(CCCCCC)N1C(=O)c2cccc3c(-c4ccc(OC)cc4)ccc(c23)C1=O` ?
yes

# check: photoluminescence quantum yield of `Cc1ccc(N(c2ccc(C)cc2)c2ccc(-c3ccc(C=C(C#N)C#N)o3)cc2)cc1` is greater than or equal to 0.5
no

---

# maps each entry to its photoluminescence quantum yield
assay: photoluminescence quantum yield (fraction); solvent given as SMILES; conditions: in C1CCOC1

The cases that follow already have their photoluminescence quantum yield on record.
[
  {
    "COMPOUND": "FC(F)(F)C(F)(F)C(F)(F)c1nc2c(-c3ccsc3)cc3c4cc(-c5ccsc5)c5nc(C(F)(F)C(F)(F)C(F)(F)F)nc6c(-c7ccsc7)cc(c7cc(-c8ccsc8)c(n1)c2c37)c4c56",
    "photoluminescence quantum yield": 0.62
  },
  {
    "COMPOUND": "CCc1ccc(-c2nc(-c3ccc(-n4c5ccccc5c5ccccc54)cc3)cc(-c3ccc(-n4c5ccccc5c5ccccc54)cc3)n2)cc1",
    "photoluminescence quantum yield": 0.6
  },
  {
    "COMPOUND": "Nc1ccccc1/C=C/C(F)(F)F",
    "photoluminescence quantum yield": 0.77
  }
]

photoluminescence quantum yield reading for `Cn1c(/C=C/c2ccc(/C=C/c3nc4ccccc4[nH]3)cc2)[n+](C)c2ccccc21` : 0.157

---

experiment: photoluminescence quantum yield (fraction); solvent given as SMILES; conditions: in c1ccc2c(c1)c1ccccc1n2-c1ccc(-c2ccc(-n3c4ccccc4c4ccccc43)cc2)cc1
photoluminescence quantum yield overview
Give the figure only, with no unit attached.

Known photoluminescence quantum yield results, listed for orientation:
[
  {
    "COMPOUND": "CC(C)(C(=O)c1ccc(N2c3ccccc3Oc3ccccc32)cc1)C(=O)c1ccc(N2c3ccccc3Oc3ccccc32)cc1",
    "RESULT VALUE": 0.54
  },
  {
    "COMPOUND": "c1ccc2c(c1)c1ccccc1n2-c1ccc2cc(-c3ccc(-c4ccc(-c5cc6ccc(-n7c8ccccc8c8ccccc87)cc6o5)cc4)cc3)oc2c1",
    "RESULT VALUE": 1
  },
  {
    "COMPOUND": "N#Cc1cc(-n2c3ccccc3c3cc(Br)ccc32)c(-n2c3ccccc3c3cc(Br)ccc32)cc1C#N",
    "RESULT VALUE": 0.543
  }
]

Consider the additional molecule presented here.
Looking up `O=P1(c2ccccc2)c2ccc(N3c4ccccc4Oc4ccccc43)cc2-c2cc(N3c4ccccc4Oc4ccccc43)ccc21` , I see its photoluminescence quantum yield listed as 0.8

---

test: photoluminescence quantum yield (fraction); solvent given as SMILES; conditions: in c1ccccc1
VALUE TYPE: photoluminescence quantum yield

[
  {
    "COMPOUND": "O=C1/C(=C2\\Sc3ccccc3C2=O)Sc2ccccc21",
    "VALUE TYPE": "photoluminescence quantum yield",
    "RESULT VALUE": 0.72
  },
  {
    "COMPOUND": "CN(C)c1ccc2nc(-c3ccc(C(=O)Nc4ccccc4)cc3)sc2c1",
    "VALUE TYPE": "photoluminescence quantum yield",
    "RESULT VALUE": 0.92
  },
  {
    "COMPOUND": "Cc1ccc(-c2cc(-c3ccccc3)c3c(N)nc(N4CCCC4)c(C#N)c3n2)cc1",
    "VALUE TYPE": "photoluminescence quantum yield",
    "RESULT VALUE": 0.073
  },
  {
    "COMPOUND": "COc1ccc(-c2nc3ccccc3oc2=O)cc1",
    "VALUE TYPE": "photoluminescence quantum yield",
    "RESULT VALUE": 0.076
  },
  {
    "COMPOUND": "CCOC(=O)CSc1nc(C)c(CC)c(C#N)c1C#N",
    "VALUE TYPE": "photoluminescence quantum yield",
    "RESULT VALUE": 0.034
  },
  {
    "COMPOUND": "CCN1c2ccc(-c3cc(C(F)(F)F)[nH]n3)cc2Sc2cc(-c3cc(C(F)(F)F)[nH]n3)ccc21",
    "VALUE TYPE": "photoluminescence quantum yield",
    "RESULT VALUE": 0.49
  }
]

For this compound ( `Cc1cc(C)c(B(c2c(C)cc(C)cc2C)c2cc3ccc4ccccc4c3c3c2cc(N(C)C)c2ccccc23)c(C)c1` ), measured photoluminescence quantum yield is 0.14

For `Cc1cc(C)c(B(c2c(C)cc(C)cc2C)c2cc3cc(N(C)C)c4ccccc4c3c3c2ccc2ccccc23)c(C)c1` the compound record lists photoluminescence quantum yield as 0.3

Memo: `CCC1=C(C)C(=O)n2c1cc1[nH]c(C(=O)OC(C)(C)C)c(C)c1c2=O` , reported photoluminescence quantum yield: 0.16

For `CCOC(=O)CSc1nc(-c2ccccc2)c(C)c(C#N)c1C#N` the compound record lists photoluminescence quantum yield as 0.038

---

assay: photoluminescence quantum yield (fraction); solvent given as SMILES; conditions: in ClCCl
VALUE TYPE: photoluminescence quantum yield
Number, no unit, nothing else.

[
  {
    "COMPOUND": "CCOc1cccc2c1O[B-](F)(F)[n+]1c3c(c4c(c1-2)-c1ccccc1CC4)-c1ccccc1CC3",
    "photoluminescence quantum yield": 0.16
  },
  {
    "COMPOUND": "CC(C)(C)c1ccc2c(c1)c1cc(C(C)(C)C)ccc1n2-c1ccc(C#Cc2ccc(C#Cc3ccc(C=C(C#N)C#N)cc3)cc2)cc1",
    "photoluminescence quantum yield": 0.3
  },
  {
    "COMPOUND": "COc1cc2c(cc1C=C(C#N)C#N)c1ccccc1n2C",
    "photoluminescence quantum yield": 0.004
  },
  {
    "COMPOUND": "COc1ccccc1-c1nc(-c2ccccc2)c2ccccn12",
    "photoluminescence quantum yield": 0.385
  },
  {
    "COMPOUND": "CC(C)(C)c1ccc(-c2cc(-c3ccc(-c4cc(-c5ccc(C(C)(C)C)cc5)c(C#N)s4)s3)sc2C#N)cc1",
    "photoluminescence quantum yield": 0.17
  },
  {
    "COMPOUND": "COc1ccccc1C1=[N+]2C(=C(c3ccccc3)c3c4c(c(-c5ccccc5OC)n3[B-]2(F)F)C2C=CC4CC2)C2=C1C1C=CC2CC1 (centres undefined)",
    "photoluminescence quantum yield": 0.87
  },
  {
    "COMPOUND": "COc1ccc2c(c1)cc(C)c1c3ccccc3[nH]c21",
    "photoluminescence quantum yield": 0.109
  },
  {
    "COMPOUND": "CN(C)c1ccc(C2=C3C=C(c4ccc(C=C(C#N)C#N)cc4)S[C@]34c3ccccc3[C@H]2c2ccccc24)cc1",
    "photoluminescence quantum yield": 0.01
  }
]

For the next question, use this compound.
The recorded photoluminescence quantum yield for entry C#CC1CN2CCC1CC2[C@@H](O)c1ccnc2ccc(OC)cc12 (some centres undefined) equals 0.033

---

test: photoluminescence quantum yield (fraction); solvent given as SMILES; conditions: in Cc1ccccc1
VALUE TYPE: photoluminescence quantum yield
// print number alone

Known results for compounds:
[
  {
    "COMPOUND": "CC1(C)c2ccccc2N(c2ccc(-c3ccc4c(c3)c3cc(-c5ccc(N6c7ccccc7C(C)(C)c7ccccc76)cc5)ccc3c3nc(C#N)c(C#N)nc43)cc2)c2ccccc21",
    "photoluminescence quantum yield": 0.33
  },
  {
    "COMPOUND": "COc1cc2c(cc1C=C(C#N)C#N)c1ccccc1n2C",
    "photoluminescence quantum yield": 0.003
  },
  {
    "COMPOUND": "CCC1=C(C)C2=Cc3c4ccccc4c4n3[B-](c3ccc5cc6ccccc6cc5c3)(Oc3ccccc3-4)[N+]2=C1C (stereo not drawn)",
    "photoluminescence quantum yield": 0.68
  },
  {
    "COMPOUND": "c1ccc(-c2nnc(-c3ccc(N4c5ccccc5N(c5ccccc5)c5ccccc54)cc3)n2-c2ccccc2)cc1",
    "photoluminescence quantum yield": 0.07
  },
  {
    "COMPOUND": "COC(=O)/C(C#N)=c1\\s/c(=c2/s/c(=C(/C#N)C(=O)OC)c3cc(-c4ccc5c(c4)C(C)(C)c4ccccc4-5)sc23)c2sc(-c3ccc4c(c3)C(C)(C)c3ccccc3-4)cc12",
    "photoluminescence quantum yield": 0.531
  },
  {
    "COMPOUND": "COc1ccc(/C=C/C2=CC(/C=C/c3ccc(OC)cc3)=[O+][B-](OC(C)=O)(OC(C)=O)O2)cc1",
    "photoluminescence quantum yield": 0.98
  }
]

# compound `c1ccc(-c2nc(-c3ccccc3)nc(-c3ccc(-n4c5ccc(-n6c7ccccc7c7ccccc76)cc5c5cc(-n6c7ccccc7c7ccccc76)ccc54)cc3)n2)cc1` ; its photoluminescence quantum yield = 0.57

Note to self: photoluminescence quantum yield recorded for `c1ccc(-n2c(-c3cccc4ccccc34)nc3c4cccc5ccc6cccc(c6c54)c32)cc1` was 1

Entry `Fc1c(F)c(-n2c3ccccc3c3ccccc32)c(F)c(F)c1/C=C/C(=C(c1ccccc1)c1ccccc1)c1ccccc1` , photoluminescence quantum yield reported as 0.001

So for `CCCCCCc1cc2/c(=C(\C#N)C(=O)OC)s/c(=c3/s/c(=C(/C#N)C(=O)OC)c4cc(CCCCCC)sc34)c2s1` , the logged photoluminescence quantum yield turned out to be 0.086

Please fill in: photoluminescence quantum yield reported for `O=C(c1ccc(N2c3ccccc3Oc3ccccc32)cc1)c1cccc(C(=O)c2ccc(N3c4ccccc4Oc4ccccc43)cc2)c1` = 0.36

Per the records, this compound ( `O=C1c2ccc(N(c3ccc(-c4ccccc4)cc3)c3ccc(-c4ccccc4)cc3)cc2C(=O)c2ccc(N(c3ccc(-c4ccccc4)cc3)c3ccc(-c4ccccc4)cc3)cc21` ) has photoluminescence quantum yield equal to 0.1

Briefly, photoluminescence quantum yield measured for `c1ccc2c(c1)Sc1ccccc1N2c1ccc2c(ccc3nc4ccc5cc(N6c7ccccc7Sc7ccccc76)ccc5c4nc32)c1` : 0.07

For record `O=C(c1ccc(-n2c3ccc(-c4ccccc4)cc3c3cc(-c4ccccc4)ccc32)cc1)c1ccc(-n2c3ccc(-c4ccccc4)cc3c3cc(-c4ccccc4)ccc32)cc1` the listed photoluminescence quantum yield is 0.153

Per the records, this compound ( `COC(=O)/C(C#N)=c1\s/c(=c2/s/c(=C(/C#N)C(=O)OC)c3cc(-c4ccc(C(F)(F)F)cc4)sc23)c2sc(-c3ccc(C(F)(F)F)cc3)cc12` ) has photoluminescence quantum yield equal to 0.212

Lab book: photoluminescence quantum yield of `CCCCN1C(=O)c2cc(Oc3ccc(C(C)(C)C)cc3)c3c4c(Oc5ccc(C(C)(C)C)cc5)cc5c(=O)[nH]/c(=C\c6ccccn6)c6cc(Oc7ccc(C(C)(C)C)cc7)c(c7c(Oc8ccc(C(C)(C)C)cc8)cc(c2c37)C1=O)c4c56` noted as 0.408

GET /value?item= `CC1(C)c2ccccc2N(c2ccc(-c3nc4cccc5c4n3-c3ccccc3C5(C)C)cc2)c2ccccc21` &field=photoluminescence quantum yield returns 0.34
